Target: Protein deacetylase HDAC6 (Homo sapiens)
Experiment: Inhibition of HDAC6 in human Huh-luc/neo7 cells assessed as alpha-tubulin acetylation at 20 to 100 uM by Western blotting analysis
Assay type: cell-based
Active and inactive are the calls of the source. The rule behind the calls is not given here.
Can you answer with just one of these options? active, inactive

> print(dat)
                      compound  qualitative.label
1       O=C(NO)c1cccc[n+]1[O-]           inactive
2              O=C(NO)c1ccccc1             active
3  O=C(NO)c1cccnc1 [NICOXAMAT]             active

Request: Which outcome was assigned to O=C(NO)c1cc[n+]([O-])cc1 in this test?
Response: inactive

Request: Short answer needed: outcome of this test for O=C(NO)c1ccncc1 ?
Response: active

Request: Fill in: this test's call for O=C(NO)c1ccccn1 is ___
Response: inactive

Request: State the result this test recorded for O=C(NO)c1ccc[n+]([O-])c1 .
Response: active

---

Experiment: Cytotoxicity against human HuH7 cells transfected with luc/neo plasmid assessed as cell viability after 72 hrs by MTT method
Type: cell-based, Huh-7
parameter: CC50 at 72 h (µM)
Your answer should be a plain number; it is taken to be in µM.

> print(dat)
       sample.smiles  recorded.number
1    O=C(NO)c1cccnc1              450
2  COc1cccnc1C(=O)NO              880
3    O=C(NO)c1ccccn1              710
4  O=C(NO)c1ncccc1Cl              800
5    O=C(NO)c1ccncc1              210

Request: Read off the recorded CC50 at 72 h for O=C(NO)c1cccc[n+]1[O-]
Response: 900
